assay: Viable non-cancerous cells after incubation with anticancer drugs in various media (Table VIII); type: cell-based; parameters: concentration or dose not given beside the values; conditions: non-cancerous cells (normal peripheral blood monocytes), drug alone; read-out: Percentage of viable cells after incubation with drugs

| COMPOUND | RESULT UNITS | viability |
| --- | --- | --- |
| O=c1[nH]c(=O)n([C@H]2C[C@H](O)[C@@H](CO)O2)cc1F | % | 38 |
| CC(C)(C#N)c1cc(Cn2cncn2)cc(C(C)(C)C#N)c1 | % | 24 |
| CN(Cc1cnc2nc(N)nc(N)c2n1)c1ccc(C(=O)N[C@@H](CCC(=O)O)C(=O)O)cc1 [methotrexate] | % | 42 |

###

Entries and their Percentage decrease or increase of Nitric Oxide over baseline
test system: patients with lung diseases including COPD; experiment: Comparison of inhaled salts of pyruvate, 5 ml of 0.5 mM solution (Table I); conditions: 5 ml of 0.5 mM solution, inhaled
ASSAY READOUT: Percentage decrease or increase of Nitric Oxide over baseline

| COMPOUND | REPORTED |
| --- | --- |
| CC(=O)C(=O)[O-].[K+] [Potassium, potassium pyruvate] | −14% |
| CC(=O)C(=O)O.N [Ammonium, ammonium pyruvate] | +5.0% |
| CC(=O)C(=O)[O-].[Li+] [Lithium, lithium pyruvate] | +6.0% |
| CC(=O)C(=O)N[C@@H](CS)C(=O)O | 0% |
| CC(=O)C(=O)[O-].[Na+] [Sodium, sodium pyruvate] | −19.0% |

###

tested on: patients with lung diseases including COPD; test: Comparison of inhaled salts of pyruvate, 5 ml of 5 mM solution (Table II); conditions: 5 ml of 5 mM solution, inhaled
ASSAY READOUT: Percentage Increase in SaO2 over baseline

| COMPOUND | REPORTED |
| --- | --- |
| CC(=O)C(=O)[O-].[K+] [Potassium, potassium pyruvate] | no |
| CC(=O)C(=O)[O-].[Li+] [Lithium, lithium pyruvate] | No |
| CC(=O)C(=O)O.N [Ammonium, ammonium pyruvate] | No |
